Biological target: Hck (UniProt P08631)
Sequence (P08631 whole entry, looked up): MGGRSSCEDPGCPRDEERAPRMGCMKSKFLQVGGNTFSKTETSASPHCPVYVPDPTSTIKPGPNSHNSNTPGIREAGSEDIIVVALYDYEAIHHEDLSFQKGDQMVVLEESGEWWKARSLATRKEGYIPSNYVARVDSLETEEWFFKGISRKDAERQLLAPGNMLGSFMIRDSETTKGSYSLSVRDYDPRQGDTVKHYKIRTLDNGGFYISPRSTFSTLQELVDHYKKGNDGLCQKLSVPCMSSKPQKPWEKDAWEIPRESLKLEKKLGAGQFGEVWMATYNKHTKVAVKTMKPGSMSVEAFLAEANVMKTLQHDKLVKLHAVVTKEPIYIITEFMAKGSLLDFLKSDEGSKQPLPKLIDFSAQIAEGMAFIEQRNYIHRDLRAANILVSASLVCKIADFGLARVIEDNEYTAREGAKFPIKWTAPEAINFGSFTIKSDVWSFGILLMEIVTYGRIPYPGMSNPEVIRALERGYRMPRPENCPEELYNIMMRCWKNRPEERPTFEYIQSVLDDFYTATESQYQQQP
Assay: phosphorylation enrichment, bacterial display (enrichment ratio); higher = better substrate or ligand; peptides without Tyr show the background;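 further: 11-residue human phosphosite peptides and single-mutation variants displayed on the E. coli surface, counted by deep sequencing, each peptide's frequency after selection divided by its frequency in the unselected input library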;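 further: frequency after pTyr selection over input frequency; kinase dosed for 20-30% of maximal phosphorylation in three min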
Assign phosphorylation enrichment to each entry below.
Lab note: jot down the number only; don't add units.

# input Which measured phosphorylation enrichment value corresponds to PAKPRYRARQR [KCNJ11_Y26_E23K] ?
# output 0.819

# input Try this sequence too: STEAIYRRYSK [SH3PXD2B_Y42]
# output 0.425

# input Try this sequence too: LYDPDYMKVIL [CYP4A22_Y104]
# output 0.787

# input Try this sequence too: KLIMEYLPFGS [JAK2_Y931_YF]
# output 0.424

# input Try this sequence too: DRLTVYIDRVR [LMNA_Y45_A43T]
# output 0.458

# input Try this sequence too: SADIAYNYRHG [PAH_Y166_F161S]
# output 0.344

# input Try this sequence too: SVTCTHSPALN [TP53_Y126_Y126H]
# output 0.529

# input Try this sequence too: KVKGEYDMTVP [AHNAK_Y964]
# output 0.443

# input Try this sequence too: LLGFLYFFVCS [SLC34A2_Y109]
# output 0.948

# input Try this sequence too: KVGNEYVTKGQ [MYH7_Y410]
# output 0.334

# input Try this sequence too: QRKPSYNQLAS [BRCA2_Y71]
# output 0.345

# input Try this sequence too: CITIHYNFMCN [TP53_Y234_T230I_YF]
# output 0.489

# input Try this sequence too: LGKGSYAKVRS [TSSK2_Y23_K27R]
# output 0.586

# input Try this sequence too: KSEKVYTRHGV [FLOT1_Y56]
# output 0.346
